B1: library; a variant is named by its letters at X, in order (parent)
chain: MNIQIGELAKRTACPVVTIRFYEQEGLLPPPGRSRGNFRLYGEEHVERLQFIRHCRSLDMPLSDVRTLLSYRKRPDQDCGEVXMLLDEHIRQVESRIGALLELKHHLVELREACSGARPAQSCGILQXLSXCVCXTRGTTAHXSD

Variants of: B1
Assay details: sfGFP reporter fluorescence (15 h) (µM FITC); higher = higher leak
Condition details: library round: Round 2; ligand: none
Output true (1) for sfGFP reporter fluorescence not less than 0.07; output false (0) otherwise.

Worked examples, 3 variants total:
record_sequence="MNIQIGELAKRTACPVVTIRFYEQEGLLPPPGRSRGNFRLYGEEHVERLQFIRHCRSLDMNLSKVRTLLSYRKRPDQDCGEVNMLLDEHIRQVESRIGALLELVHHLVELREACSGARPAQSCGILQALSDCVCDTRGTTAHPSD [NADDP P61N D64K K104V]" label="true (1)"
record_sequence="MNIQIGELAKRTACPVVTIRFYEQEGLLPPPGRSRGNFRLYGEEHVERLQFIRHCRSLDMPLSDVRTLLSYRKRPDQDCGEVNMLLDEHIRQVESRIGALLELKHHLVEIREACSGARPAQSCGILQGLSDCVCATRGTTAHLSD [NGDAL L110I]" label="false (0)"
record_sequence="MNIQIGELAKRTACPVVTIRFYEQEGLLPPPGRSRGNFRLYGEEHVERLQFIRHCRSLDMPLSDVRTLLSYRKRPDQDCGEVNMLLDEHIRQVESRIGALLELKHHLVLLREACSGARPAQSCGILQHLSDCVCDTRGTTAHWSD [NHDDW E109L]" label="false (0)"

Input line: Is it the case that MNIQIGELAKRTACPVVTIRFYEQEGLLPPPGRSRGNFRLYGEEHVERLQFIRHCRSLDMNLSDVRTLLSYRKRPDQDCGEVNMLLDEHIRQVESRIGALLELKHHCVELREACSGARPAQSCGILQGLSDCVIDTRGTTAHPSD [NGDDP P61N L107C C134I] has sfGFP reporter fluorescence reaching or exceeding 0.07?
Output line: true (1)

Input line: Is it the case that MNIQIGELAKRTACPVVTIRFYEQEGLLPPPGRSRGNFRLYGEEHVERLQFIRHCRSLDLPLSDVRTLLSYRKRPDQDCGEVNMLLDEHIRQVESRIGALLELKHHLVELREACSGARPAQSCGILQMLSDCVCDTRGTTAHASD [NMDDA M60L] has sfGFP reporter fluorescence reaching or exceeding 0.07?
Output line: true (1)

Input line: Is it the case that MNIQIGELAKRTACPVVTIRFYEQEGLLPPPGRSRGNFRLYGEEHVERLQFIRHCRSLDMNLSKVRTLLSYRKRPDQDCGEVTMLLDEHIRQVESRIGALLELKHHLVELREACSGARPAQSCGILQILSDCVCDTRGTTAHPSD [TIDDP P61N D64K] has sfGFP reporter fluorescence reaching or exceeding 0.07?
Output line: true (1)
